test system: Speichelsekretion; assay: Inhibition of pilocarpine-induced salivary secretion in the rat; type: in vivo, männliche THOM-Ratten; conditions: iv; urethane-anaesthetised rat, i.v.; 2 mg/kg Pilocarpin s.c.; dose reducing saliva volume by 50 %; read-out: -log ED50 Salivationshemmung (converted)
resultType: ED50

## Task Give the measured ED50 of CN1CCN(CC(=O)N2c3ccccc3C(=O)Nc3cccnc32)CC1 [E, reference compound] .
## Result 0.603 µmol/kg

## Task Then this compound: O=C1Nc2cccnc2N(C(=O)CCCN2CCCCC2CN2CCCC2)c2ccccc21 (centres unmarked) [C]
## Result 1.66 µmol/kg

## Task Then this compound: CCN(CC)CC1COCCN1CCCC(=O)N1c2ccccc2C(=O)Nc2cccnc21 (centres unmarked) [A]
## Result 1.1 µmol/kg

## Task Then this compound: CCN(CC)CC1CCCCN1CC(=O)N1c2ccccc2C(=O)Nc2cccnc21 (centres unmarked) [D, reference compound]
## Result 10 µmol/kg

## Task Then this compound: CCN(CC)CC1CCCCN1CCCC(=O)N1c2cc(C)ccc2C(=O)Nc2cccnc21 (centres unmarked) [B]
## Result 1.12 µmol/kg

----------
tested on: durch McN-A-343 verursachte Blutdruckanstieg (M,); assay: M1/M2 selectivity in the rat: inhibition of blood pressure rise caused by McN-A-343; assay type: in vivo, männliche THOM-Ratten; conditions: iv, 5 min; rat, i.v., 5 min after injection; dose reducing the blood pressure rise after 0,3 mg/kg McN-A-343 i.v. (M1) by 50 %; read-out: -log ED50 Blutdruck (converted)
# Lookup of reported ED50 keyed by entry

// known answers, use as guide
## Task Give the measured ED50 of CCN(CC)CC1CCCCN1CC(=O)N1c2ccccc2C(=O)Nc2cccnc21 (stereo not shown) [D, reference compound] .
## Result 2.34 µmol/kg

## Task Then this compound: CCN(CC)CC1CCCCN1CCCC(=O)N1c2cc(C)ccc2C(=O)Nc2cccnc21 (stereo not shown)
## Result 0.501 µmol/kg

## Task Then this compound: CCN(CC)CC1COCCN1CCCC(=O)N1c2ccccc2C(=O)Nc2cccnc21 (stereo not shown)
## Result 0.55 µmol/kg

Turning now to a further compound:
## Task Give the measured ED50 of O=C1Nc2cccnc2N(C(=O)CCCN2CCCCC2CN2CCCC2)c2ccccc21 (stereo not shown) .
## Result 0.219 µmol/kg
